tested on: spontaneous dilated cardiomyopathy (J2N-k) hamster model; assay: Spontaneous dilated cardiomyopathy (J2N-k) hamster model, 8-week administration from 20 weeks of age (Tests 1-3): echocardiography, body weight; conditions: Test 1, p.o. b.i.d.
Structures can show the parent of a compound that is named as a salt.
This listing pairs molecules with measured LVIDd 4 W.
REPORTED_ENDPOINT: LVIDd 4 W (mm)

>>> value_observed("Cc1ccc(=O)n(-c2ccccc2)c1")
6.9
>>> value_observed("O=C(O)COc1cccc2c1CCC=C2CCO/N=C(\\c1ccccc1)c1cccnc1")
6.9
>>> value_observed("O=C1CCc2cc(OCCCCc3nnnn3C3CCCCC3)ccc2N1")
7.1
>>> value_observed("O=C(O)/C=C/c1ccc(Cn2ccnc2)cc1 [Compound C, Ozagrel hydrochloride hydrate]")
7.1
>>> value_observed("CN(C)C(=O)COC(=O)Cc1ccc(OC(=O)c2ccc(NC(=N)N)cc2)cc1 [Compound B, Camostat mesilate]")
6.8

###

system: rat coronary artery complete ischemia model; assay: Model of ischemia (MI) by rat coronary artery complete ligation (Tests 1 and 2): echocardiography, body weight; conditions: MI Test 2; 14 Day; B 150, G 5, I 30, C 10 mg/kg p.o. b.i.d.; B-MS 100, C-MS 50, F-MS 30 mg/kg s.c. single injection; mean ± S.D.
Counter-ions that a name gives are not always drawn.
REPORTED_ENDPOINT: value of change in E.F. compared with E.F. on Day 1

>>> value_observed("O=C(O)/C=C/c1ccc(Cn2ccnc2)cc1 [Compound C, Ozagrel hydrochloride hydrate]")
"<−4.9 ± 2.3> %"
>>> value_observed("COC(=O)c1ccc2c(c1)NC(=O)/C2=C(\\Nc1ccc(N(C)C(=O)CN2CCN(C)CC2)cc1)c1ccccc1 [Compound G, Nintedanib ethanesulfonate]")
"<−6.2 ± 1.8> %"
>>> value_observed("CCCc1nn(C)c2c(=O)[nH]c(-c3cc(S(=O)(=O)N4CCN(C)CC4)ccc3OCC)nc12 [Compound I, Sildenafil citrate]")
"<−5.1 ± 2.5> %"
>>> value_observed("CN(C)C(=O)COC(=O)Cc1ccc(OC(=O)c2ccc(NC(=N)N)cc2)cc1 [Compound B, Camostat mesilate]")
"<−4.2 ± 2.5> %"
